# Test system: MOLM14;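 further: after 48 h exposure read by CellTiter-Glo luminescence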
# assay-text: cell viability relative to vehicle control; higher = less cytotoxic
# details: 10 µM; SRSF2 genotype: SRSF2 wt/wt
property: cell viability (%)
Lab book: enter the figure in %, no units written.

Ask: Field request: cell viability | item: O=C(NC[C@H]1CN(c2ccc(N3CCOCC3=O)cc2)C(=O)O1)c1ccc(Cl)s1 [Rivaroxaban (Xarelto)]
Result: 97.1

Ask: Param item: CO[C@H]1C[C@@H]2CC[C@@H](C)[C@@](O)(O2)C(=O)C(=O)N2CCCC[C@H]2C(=O)O[C@H]([C@H](C)C[C@@H]2CC[C@H](n3cnnn3)[C@H](OC)C2)CC(=O)[C@H](C)/C=C(\C)[C@@H](O)[C@@H](OC)C(=O)[C@H](C)C[C@H](C)/C=C/C=C/C=C/1C [Zotarolimus (ABT-578)]
Result: 56.5

Ask: Param item: CC(=O)c1ccc(C)cc1O [2'-Hydroxy-4'-methylacetophenone]
Result: 102
